Overview of recorded pEC50 for various molecules
molecular target: CD80-CD28 interaction (Homo sapiens, UniProt P33681); construct: mouse Fab fragment (fusion partner); experiment: cell free Homogenous Time Resolved Fluorescence (HTRF) assay, inhibition of the CD80-CD28 interaction; format: binding; details: 4 hours at room temperature, read-out: Activity (EC50 in summary form)
Sequence (P33681 35-242 limits assumed): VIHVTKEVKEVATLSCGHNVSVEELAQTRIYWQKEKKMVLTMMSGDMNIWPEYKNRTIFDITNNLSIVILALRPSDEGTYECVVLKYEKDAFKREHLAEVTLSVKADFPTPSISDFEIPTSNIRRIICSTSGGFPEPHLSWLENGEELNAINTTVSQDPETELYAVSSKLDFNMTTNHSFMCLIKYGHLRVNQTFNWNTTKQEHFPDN
pEC50: −log10 of the molar value.
observation type: pEC50

>>> test_result("CCN(CC)CCCCNC(=O)c1ccc(-n2nc3c4cccc(F)c4[nH]c(C4CC4)c-3c2=O)cc1")
"> 6.00"
>>> test_result("CCN1CCCC1CNC(=O)c1ccc(-n2nc3c4cccc(F)c4[nH]cc-3c2=O)cc1 (stereo not drawn)")
"> 6.00"
>>> test_result("CC(C)(C)OC(=O)N1CCC(NC(=O)c2ccc(-n3nc4c5cccc(F)c5[nH]c(C5CC5)c-4c3=O)cc2)CC1")
"5.00 to 6.00"
>>> test_result("O=C(NC1CCCCNC1=O)c1ccc(-n2nc3c4cccc(F)c4[nH]cc-3c2=O)cc1 (stereo not drawn)")
"5.00 to 6.00"
>>> test_result("CC(=O)Nc1ccc(-n2nc3c4cccc(F)c4[nH]cc-3c2=O)cc1")
"5.00 to 6.00"
>>> test_result("CC(N)C(=O)Nc1ccc(-n2nc3c4cccc(F)c4[nH]cc-3c2=O)cc1 (stereo not drawn)")
"> 6.00"
